assay_system: Recombinant human IL-1β (BioLegend 579404) (human, UniProt P01584 117-269)
procedure_details: cell-based or functional assay
Starred links: 1 amine or outer side, 2 acyl side, 3 side chain; linkers in the order of their positions; H or OH if unused. Non-standard residues stand in square brackets, D forms with d. Ala(piperidin-4-yl) = O=C([C@H](CC1CCN([*:3])CC1)N[*:1])[*:2]; Trp(βS-Me,4-F) = C[C@@H](c1c[nH]c2cccc(F)c12)[C@H](N)C(=O)O; Bip(4'-COOH) = N[C@@H](Cc1ccc(-c2ccc(C(=O)O)cc2)cc1)C(=O)O; dPro(4R-Bzl(4-F)) = O=C(O)[C@H]1C[C@@H](Cc2ccc(F)cc2)CN1; Phe(4-COOH) = N[C@@H](Cc1ccc(C(=O)O)cc1)C(=O)O; Pro(cis-4-F) = O=C(O)[C@@H]1C[C@H](F)CN1; 4Pal = N[C@@H](Cc1ccncc1)C(=O)O; Aib = CC(C)(N)C(=O)O
Hi, to clarify the labels: criterion met covers MRC5 IC50 from 0.03 nM upward, criterion not met covers anything below 0.03 nM.

Q: Hello, I need to know if cyclo([Bip(4'-COOH)][4Pal][Phe(4-COOH)]G[Pro(cis-4-F)][Trp(βS-Me,4-F)][Aib]EW[Aib][Ala(piperidin-4-yl)]QSG[dPro(4R-Bzl(4-F))]) (ring closure inferred) [SEQ ID NO: 121] has measured MRC5 IC50 not below 0.03 nM. Thanks!
Result: criterion not met
